molecular target: T1, Soluble TSHR (22-260) protein (human, UniProt P16473 22-260); test: SPR (Biacore T200, 25 C), antibody captured on anti-human Fc, soluble TSHR (22-260) as analyte, 1:1 fit;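 also: antibodies captured at 0.1 ug/mL on a CM5 sensor chip bearing anti-human Fc, with HBS-EP+ running buffer at pH 7.4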
T1 construct: range 22-260
Each record here notes measured koff.
A number alone suffices; assume s⁻¹.

Some binders with known koff results, for comparison:
TSHB-7 (antibody, V domains shown) VH: EVQLVQSGAEVKKPGESLKISCKASGYSLKDNWIGWVRQKPGKGLEWMGIIYPGDSDTRYSPSFQGQVTISADKSISTAYLQWSSLKASDTAIYYCVGLDWNYNPLRYWGQGTLVTVSS VL: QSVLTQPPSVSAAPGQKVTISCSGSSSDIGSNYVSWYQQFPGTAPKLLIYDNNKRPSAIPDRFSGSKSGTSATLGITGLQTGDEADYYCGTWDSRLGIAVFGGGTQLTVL ... 0.000477
TSHB-3 (antibody, V domains shown) VH: EVQLVQSGAEVKKPGESLKISCKASGYSLTDNWIGWVRQKPGKGLEWMGIIYPGDSDTRYSPSFQGQVTISADKSISTAYLQWSSLKASDTAIYYCVGLEWNYNPLRYWGQGTLVTVSS VL: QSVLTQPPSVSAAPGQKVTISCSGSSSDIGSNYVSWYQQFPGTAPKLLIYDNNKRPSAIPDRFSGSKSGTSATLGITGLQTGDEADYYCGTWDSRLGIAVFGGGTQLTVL ... 0.000533

Problem: Give the reported value of koff for this record: TSHB-14 (antibody, V domains shown) VH: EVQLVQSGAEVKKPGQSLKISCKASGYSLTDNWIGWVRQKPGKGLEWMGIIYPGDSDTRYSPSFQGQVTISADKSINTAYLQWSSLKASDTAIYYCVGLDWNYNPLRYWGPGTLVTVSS VL: QSVLTQPPSVSAAPGQKVTISCSGSSSDIGSNYVSWYQQLPGTAPKLLIYDNNKRPSGIPDRFSGSKSGTSATLGITGLQTGDEADYYCGTWDSRWGIAVFGGGTQLTVL
Solution: 0.000352
